System under test: FGFR3 (UniProt P22607)
Sequence (P22607 whole entry, looked up): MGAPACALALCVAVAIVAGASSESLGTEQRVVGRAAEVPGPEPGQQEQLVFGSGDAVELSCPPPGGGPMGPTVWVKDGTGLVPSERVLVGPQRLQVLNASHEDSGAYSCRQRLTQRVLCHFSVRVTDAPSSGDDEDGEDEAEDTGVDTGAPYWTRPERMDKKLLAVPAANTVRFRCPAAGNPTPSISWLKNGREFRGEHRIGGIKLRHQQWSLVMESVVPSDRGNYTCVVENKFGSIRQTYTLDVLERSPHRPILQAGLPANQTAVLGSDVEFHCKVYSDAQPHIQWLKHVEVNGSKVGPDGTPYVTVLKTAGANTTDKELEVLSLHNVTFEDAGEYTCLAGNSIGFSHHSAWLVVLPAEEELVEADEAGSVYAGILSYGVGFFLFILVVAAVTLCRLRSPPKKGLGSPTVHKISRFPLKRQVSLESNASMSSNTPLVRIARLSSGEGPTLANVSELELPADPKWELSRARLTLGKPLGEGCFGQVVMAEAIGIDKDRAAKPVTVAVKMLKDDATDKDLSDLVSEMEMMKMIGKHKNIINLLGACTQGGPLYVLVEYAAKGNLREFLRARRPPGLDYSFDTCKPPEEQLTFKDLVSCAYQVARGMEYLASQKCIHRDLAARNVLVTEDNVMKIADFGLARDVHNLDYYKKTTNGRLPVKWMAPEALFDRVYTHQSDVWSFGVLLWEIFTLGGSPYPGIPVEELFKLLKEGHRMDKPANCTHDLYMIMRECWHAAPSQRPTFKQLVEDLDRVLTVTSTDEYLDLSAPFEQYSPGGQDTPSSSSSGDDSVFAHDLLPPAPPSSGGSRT
Test details: phosphorylation enrichment, bacterial display (enrichment ratio); higher = better substrate or ligand; peptides without Tyr show the background;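 also: 11-residue human phosphosite peptides and single-mutation variants displayed on the E. coli surface, counted by deep sequencing, each peptide's frequency after selection divided by its frequency in the unselected input library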;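 also: frequency after pTyr selection over input frequency; kinase dosed for 20-30% of maximal phosphorylation in three min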
Exercise: state measured phosphorylation enrichment for each of the sequences provided.
Just the number, please.

Reported phosphorylation enrichment, sequence LTFDEYRNNSQ [ANXA3_Y216_I219N] : ____
0.632

Reported phosphorylation enrichment, sequence RNVFFYSFLLK [PTEN_Y178_Y174N_YF] : ____
1.31

Reported phosphorylation enrichment, sequence KRTFEYEAEKN [DENND2B_Y396_D399E] : ____
0.527

Reported phosphorylation enrichment, sequence SFPSYYTSHVQ [NEFL_Y443] : ____
1.76

Reported phosphorylation enrichment, sequence LFSGDCFRIQG [DDR2_Y740_Y740C_YF] : ____
0.693

Reported phosphorylation enrichment, sequence LDLSYYHTSSS [EMD_Y182_P183H] : ____
1.22

Reported phosphorylation enrichment, sequence GGFTWYCDGKK [PROS1_Y266_C265W_YF] : ____
0.833

Reported phosphorylation enrichment, sequence SIVEDYRPPFF [ACVRL1_Y421_G416S_YF] : ____
0.646

Reported phosphorylation enrichment, sequence DTLLEYLENPK [CYCS_Y68_M66L] : ____
0.828

Reported phosphorylation enrichment, sequence HIAKGYRRDNP [HARS1_Y156_V155G] : ____
0.326

Reported phosphorylation enrichment, sequence LGLDECLDKLK [FMNL2_Y352_Y352C] : ____
1.54

Reported phosphorylation enrichment, sequence KTSGNYLAVTG [WDR19_Y28] : ____
0.457

Reported phosphorylation enrichment, sequence LKEIRYPPFTD [ALDH3B2_Y362_H361R_YF] : ____
1.07

Reported phosphorylation enrichment, sequence QLAPQYTFTQG [FLNA_Y1761_A1764T_YF] : ____
0.982

Reported phosphorylation enrichment, sequence VYYGSYSCPYG [NKAP_Y104_R106C] : ____
2.87

Reported phosphorylation enrichment, sequence QRHFVYFFSFL [PTEN_Y176_R173H_YF] : ____
1.46

Reported phosphorylation enrichment, sequence VDEERYDIEGK [TNNI3_Y112_A116G] : ____
0.754

Reported phosphorylation enrichment, sequence QVMDGYPMPIG [MMP14_Y353] : ____
0.629

Reported phosphorylation enrichment, sequence TWQSMYGCDVG [HLA-B_Y123_L119W] : ____
0.802

Reported phosphorylation enrichment, sequence NQNIGYELGHR [KCNN3_Y268_K269E] : ____
0.403

Reported phosphorylation enrichment, sequence DIPIRYSIMGV [CDH4_Y205_T208M] : ____
0.695

Reported phosphorylation enrichment, sequence MSRDVYSTDFF [NTRK2_Y702_YF] : ____
0.718

Reported phosphorylation enrichment, sequence VPFARYLAMNK [HARS1_Y138] : ____
0.442

Reported phosphorylation enrichment, sequence NWGSPYKSNGC [ZNF347_Y261] : ____
0.546

Reported phosphorylation enrichment, sequence VKKKLYEEIDQ [CYP17A1_Y329] : ____
0.601

Reported phosphorylation enrichment, sequence FTHSDYQFSQR [PKP2_Y166_YF] : ____
0.646

Reported phosphorylation enrichment, sequence FSEVRYMKEPY [HIPK4_Y170_V171M] : ____
0.72

Reported phosphorylation enrichment, sequence PRIKTYMRPSP [TDP1_Y497_H493R] : ____
0.522

* * *

System under test: EPHB2 (UniProt P29323)
Sequence (P29323 whole entry, looked up): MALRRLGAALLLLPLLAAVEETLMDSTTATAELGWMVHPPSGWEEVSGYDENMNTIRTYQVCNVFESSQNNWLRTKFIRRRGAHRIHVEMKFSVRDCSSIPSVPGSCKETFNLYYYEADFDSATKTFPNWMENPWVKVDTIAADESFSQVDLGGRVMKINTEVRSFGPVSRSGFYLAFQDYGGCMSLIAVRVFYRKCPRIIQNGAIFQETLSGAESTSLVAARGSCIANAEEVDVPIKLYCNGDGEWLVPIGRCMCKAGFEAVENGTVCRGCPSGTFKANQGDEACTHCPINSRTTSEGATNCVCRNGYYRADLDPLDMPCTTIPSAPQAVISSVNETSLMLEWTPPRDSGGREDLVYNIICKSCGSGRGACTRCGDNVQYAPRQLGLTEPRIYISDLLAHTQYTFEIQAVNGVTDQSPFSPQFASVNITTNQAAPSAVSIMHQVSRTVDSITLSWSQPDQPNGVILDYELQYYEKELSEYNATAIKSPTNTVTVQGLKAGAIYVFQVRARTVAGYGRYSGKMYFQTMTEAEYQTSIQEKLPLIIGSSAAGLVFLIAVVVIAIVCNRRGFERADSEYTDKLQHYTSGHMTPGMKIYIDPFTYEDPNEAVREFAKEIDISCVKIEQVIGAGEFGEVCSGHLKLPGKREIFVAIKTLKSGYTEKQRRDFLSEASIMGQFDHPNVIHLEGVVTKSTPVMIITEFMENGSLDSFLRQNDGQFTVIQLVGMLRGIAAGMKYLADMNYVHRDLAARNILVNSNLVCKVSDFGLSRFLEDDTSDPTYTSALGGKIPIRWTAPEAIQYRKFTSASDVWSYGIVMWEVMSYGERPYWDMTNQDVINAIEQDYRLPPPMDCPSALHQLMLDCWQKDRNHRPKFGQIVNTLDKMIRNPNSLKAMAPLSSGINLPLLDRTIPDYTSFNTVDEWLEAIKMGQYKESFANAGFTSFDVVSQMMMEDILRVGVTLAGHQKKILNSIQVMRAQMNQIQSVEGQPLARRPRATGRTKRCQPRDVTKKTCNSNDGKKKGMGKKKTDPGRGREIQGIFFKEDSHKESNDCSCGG
Test details: phosphorylation enrichment, bacterial display (enrichment ratio); higher = better substrate or ligand; peptides without Tyr show the background
Exercise: state measured phosphorylation enrichment for each of the sequences provided.
Just the number, please.

GET /values?readout=phosphorylation enrichment&system=EPHB2 (UniProt P29323)&item= GESQGYDIMEP [MSH2_Y863]
0.555

GET /values?readout=phosphorylation enrichment&system=EPHB2 (UniProt P29323)&item= GGDVIYKGFED [NFU1_Y194]
0.491

GET /values?readout=phosphorylation enrichment&system=EPHB2 (UniProt P29323)&item= ADEEFYEIIAA [FEStide_F_2014]
0.77

GET /values?readout=phosphorylation enrichment&system=EPHB2 (UniProt P29323)&item= "ENAGYYFQVSA"
0.566

GET /values?readout=phosphorylation enrichment&system=EPHB2 (UniProt P29323)&item= AYRHGYFDEEM [PLEC_Y2971_R2969H]
0.631

GET /values?readout=phosphorylation enrichment&system=EPHB2 (UniProt P29323)&item= KVKPIYFHTQG [AR_Y916]
0.422

GET /values?readout=phosphorylation enrichment&system=EPHB2 (UniProt P29323)&item= VAFVYYKSIGP [ADGRL4_Y302]
0.653

GET /values?readout=phosphorylation enrichment&system=EPHB2 (UniProt P29323)&item= LENSTYQYIHV [CRB1_Y760_R764H]
5.17

GET /values?readout=phosphorylation enrichment&system=EPHB2 (UniProt P29323)&item= NKFVAYIESQG [KDM4B_Y34_YF]
0.553

GET /values?readout=phosphorylation enrichment&system=EPHB2 (UniProt P29323)&item= QLAPQYTFTQG [FLNA_Y1761_A1764T_YF]
0.845

GET /values?readout=phosphorylation enrichment&system=EPHB2 (UniProt P29323)&item= QLFGPYLRIHA [BSCL2_Y213_A212P_YF]
0.548

GET /values?readout=phosphorylation enrichment&system=EPHB2 (UniProt P29323)&item= VNFDFYTVNLG [GFPT1_Y367_D366Y_YF]
0.772

GET /values?readout=phosphorylation enrichment&system=EPHB2 (UniProt P29323)&item= SELVRYDARVH [MET_Y971]
0.494

GET /values?readout=phosphorylation enrichment&system=EPHB2 (UniProt P29323)&item= IHHIDYYKKTT [FGFR1_Y653]
0.544

GET /values?readout=phosphorylation enrichment&system=EPHB2 (UniProt P29323)&item= RQQEDYLLFKQ [RARRES1_Y159_YF]
0.978

GET /values?readout=phosphorylation enrichment&system=EPHB2 (UniProt P29323)&item= PGQRVYVVAES [SHH_Y316_R321S]
0.507

GET /values?readout=phosphorylation enrichment&system=EPHB2 (UniProt P29323)&item= "LANNEYFFQVC"
0.804

GET /values?readout=phosphorylation enrichment&system=EPHB2 (UniProt P29323)&item= SLQFEYVHFGG [CDC14A_Y591_S589F_YF]
0.682

GET /values?readout=phosphorylation enrichment&system=EPHB2 (UniProt P29323)&item= LFSLGYHQSRW [GANAB_Y396]
0.724

GET /values?readout=phosphorylation enrichment&system=EPHB2 (UniProt P29323)&item= LQPNNCQFCGG [CSF1R_Y969_Y969C]
0.711

GET /values?readout=phosphorylation enrichment&system=EPHB2 (UniProt P29323)&item= LARDMHDKEFF [MET_Y1230_Y1230H_YF]
0.757

GET /values?readout=phosphorylation enrichment&system=EPHB2 (UniProt P29323)&item= TNFSLYLRSLE [MTM1_Y71_R69S_YF]
0.491

GET /values?readout=phosphorylation enrichment&system=EPHB2 (UniProt P29323)&item= APTSGYREFVH [IL4R_Y575_Q576R]
0.342

GET /values?readout=phosphorylation enrichment&system=EPHB2 (UniProt P29323)&item= FTDPFYDFEIE [ZC3H18_Y372_A368T_YF]
0.867

GET /values?readout=phosphorylation enrichment&system=EPHB2 (UniProt P29323)&item= KFSNQYKATIG [RAB7A_Y37]
0.311

GET /values?readout=phosphorylation enrichment&system=EPHB2 (UniProt P29323)&item= TSNQEYLYLSM [FGFR1_Y766_D768Y]
1.83

GET /values?readout=phosphorylation enrichment&system=EPHB2 (UniProt P29323)&item= ALVFLSFCIIF [SIGLEC12_Y494_Y494S]
0.489

GET /values?readout=phosphorylation enrichment&system=EPHB2 (UniProt P29323)&item= HAEERYGKELV [PSTPIP1_Y53_Q48H]
0.806

GET /values?readout=phosphorylation enrichment&system=EPHB2 (UniProt P29323)&item= SRGHQYQELPR [KCNH2_Y1009_R1007H]
0.602

GET /values?readout=phosphorylation enrichment&system=EPHB2 (UniProt P29323)&item= GVYSRHFTTYD [CLCA1_Y661_Y661H]
0.473

GET /values?readout=phosphorylation enrichment&system=EPHB2 (UniProt P29323)&item= KFWREYILSLE [GPC3_Y299_YF]
0.666

GET /values?readout=phosphorylation enrichment&system=EPHB2 (UniProt P29323)&item= FQGGTYSKACT [FGG_Y380_S384C_YF]
0.366

GET /values?readout=phosphorylation enrichment&system=EPHB2 (UniProt P29323)&item= CGLPRYRWLTH [TSPAN12_Y143_Y138C]
0.645

GET /values?readout=phosphorylation enrichment&system=EPHB2 (UniProt P29323)&item= DLEKTYNTYRS [B4GALNT2_Y538_A533D]
0.509

GET /values?readout=phosphorylation enrichment&system=EPHB2 (UniProt P29323)&item= SFSGEYGSGGG [ZG16_Y30_G32S_YF]
0.454

GET /values?readout=phosphorylation enrichment&system=EPHB2 (UniProt P29323)&item= EKKKKYMLPLD [DNM2_Y563_E560K]
0.469

GET /values?readout=phosphorylation enrichment&system=EPHB2 (UniProt P29323)&item= LLANAYIFDVQ [L1CAM_Y418_V421D_YF]
0.838

GET /values?readout=phosphorylation enrichment&system=EPHB2 (UniProt P29323)&item= GSRGKYFSGFR [ATM_Y332_S333F]
0.399

GET /values?readout=phosphorylation enrichment&system=EPHB2 (UniProt P29323)&item= IIRQLYLKWHP [SACS_Y4333_R4331Q]
0.444

GET /values?readout=phosphorylation enrichment&system=EPHB2 (UniProt P29323)&item= PSGPAYRGAVP [ASAH1_Y43_T42A]
0.431

GET /values?readout=phosphorylation enrichment&system=EPHB2 (UniProt P29323)&item= PTYENYANSTQ [SLC12A3_Y70_H69N]
3.36

GET /values?readout=phosphorylation enrichment&system=EPHB2 (UniProt P29323)&item= SGSIHYSCVPR [GLB1_Y57_R59C]
0.585

GET /values?readout=phosphorylation enrichment&system=EPHB2 (UniProt P29323)&item= IGEVVYQRAVM [GRIN2A_Y502]
0.554

GET /values?readout=phosphorylation enrichment&system=EPHB2 (UniProt P29323)&item= ADDSYYTARSA [ZAP70_Y493]
0.603

GET /values?readout=phosphorylation enrichment&system=EPHB2 (UniProt P29323)&item= ISTAGYSIPEL [EDAR_Y406]
0.464

GET /values?readout=phosphorylation enrichment&system=EPHB2 (UniProt P29323)&item= KFANSYRMEPL [TCTE3_Y87]
0.409

GET /values?readout=phosphorylation enrichment&system=EPHB2 (UniProt P29323)&item= DQVEQYKKELE [LMNA_Y259]
0.644

GET /values?readout=phosphorylation enrichment&system=EPHB2 (UniProt P29323)&item= SVTCTYFPALN [TP53_Y126_S127F]
0.669

GET /values?readout=phosphorylation enrichment&system=EPHB2 (UniProt P29323)&item= STEEQYRICQV [EFHC1_Y115_R118C]
0.629

GET /values?readout=phosphorylation enrichment&system=EPHB2 (UniProt P29323)&item= KPIETYFSKNY [PLP1_Y50_L46P]
0.408

GET /values?readout=phosphorylation enrichment&system=EPHB2 (UniProt P29323)&item= MSSLFYANALF [HOXB7_Y6_T9A_YF]
0.755

GET /values?readout=phosphorylation enrichment&system=EPHB2 (UniProt P29323)&item= IKKLIYVHLVI [JAGN1_Y42]
0.59

GET /values?readout=phosphorylation enrichment&system=EPHB2 (UniProt P29323)&item= TSIGNYYKPWF [DHCR24_Y299_N294T]
15.7

GET /values?readout=phosphorylation enrichment&system=EPHB2 (UniProt P29323)&item= TWQSMYGCDVG [HLA-B_Y123_L119W]
0.63

GET /values?readout=phosphorylation enrichment&system=EPHB2 (UniProt P29323)&item= RRERLYGGGGG [FUS_Y526_P525L]
0.398

GET /values?readout=phosphorylation enrichment&system=EPHB2 (UniProt P29323)&item= GKGGSYSQAAS [HLA-B_Y344_C349S]
0.41

GET /values?readout=phosphorylation enrichment&system=EPHB2 (UniProt P29323)&item= RLRVVYPWTQR [HBB_Y36_L33R]
0.363
